Biological target: U. maydis IMPDH (Imp1) (Ustilago maydis, UniProt A0A0D1CRJ0, T408N)
Experiment: Inhibition of U. maydis IMPDH (NADH fluorescence assay)
Type: biochemical
Details: negative decimal logarithm of the molar IC50 for 50% inhibition of the enzyme; read-out: pI50 (converted)
Protocol: The activity, or the decrease or increase in activity, can also preferably be determined by means of the conversion of the substrate NAD^+ into NADH, where the lower, or inhibited, activity of the polypeptide according to the invention is determined with reference to a less sharp increase in fluorescence emitted by the smaller amounts of NADH formed (see also FIG. 1). NADH fluoresces more than NAD^+. […]
Recorded IC50 values for a group of compounds are listed next.

Consider the following illustrative entries.
{"Compound": "c1coc(-c2oc3nc4c(-c5ccco5)c(-c5ccco5)oc4nc3c2-c2ccco2)c1 [Example 4]", "Target system": "U. maydis IMPDH (Imp1) (Ustilago maydis, UniProt A0A0D1CRJ0, T408N)", "Readout value": "0.2 µM"}
{"Compound": "CCCCCCCCCCCCCCCCOc1ccc(CCCC(=O)O)cc1 [Example 1]", "Target system": "U. maydis IMPDH (Imp1) (Ustilago maydis, UniProt A0A0D1CRJ0, T408N)", "Readout value": "25.1 µM"}
{"Compound": "COC1=Cc2ccccc2C(=O)C1=O [Example 2]", "Target system": "U. maydis IMPDH (Imp1) (Ustilago maydis, UniProt A0A0D1CRJ0, T408N)", "Readout value": "12.6 µM"}

Next up:
Reported IC50 for CN1CCN(C)c2cc3nc4ccccc4nc3cc21 [Example 3] was 10 µM

Where do the numbers come from? From patent US7270977B2.
